The measurements presented in this section are drawn from ChEMBL document CHEMBL3739256.

- experimentSummary: Cytotoxicity against human Jurkat cells after 48 to 72 hrs by MTT assay
- Format: cell-based
Please provide measured CC50 for the entries that follow.
Number only, in µM; omit the unit.

Given COc1ccc(C2=Cc3ccc([N+](=O)[O-])cc3C(CC(C)=O)N2c2ccc(F)cc2)cc1 (stereo unspecified) , respond with its CC50. 16.4

// fetch CC50 given entry COc1ccc(C2=Cc3ccc(F)cc3C(CC(=O)C(C)O)N2c2ccc(F)cc2)cc1 (stereo unspecified) 1.81

Given COc1ccc(C2=Cc3ccc(F)cc3C(CC(=O)CO)N2c2ccc([N+](=O)[O-])cc2)cc1 (stereo unspecified) , respond with its CC50. 57.1

In one line, give reported CC50 of the entry COc1ccc(C2=Cc3ccc([N+](=O)[O-])cc3C(CC(C)=O)N2c2ccc(C)cc2)cc1 (stereo unspecified) . 33.1

For the compound COc1ccc(C2=Cc3ccc(F)cc3C(C[N+](=O)[O-])N2c2ccc(Cl)cc2)cc1 (stereo unspecified) , give its reported CC50. 20.3

----------
- experimentSummary: Therapeutic index, ratio of CC50 for human TZM-bl cells to EC50 for HIV-1 infected in TZM-bl cells
- Type: cell-based
- measurementConditions: read-out: Ratio CC50/EC50
I'd appreciate it if you could supply selectivity ratio values for the items below.
Lab note: record the figure alone, no unit after it.

Could you please provide reported selectivity ratio for COc1ccc(C2=Cc3ccc([N+](=O)[O-])cc3C(CC(C)=O)N2c2ccc(O)cc2)cc1 (stereo not given) ? Thanks! 0.7

Provide one value: measured selectivity ratio of COc1ccc(C2=Cc3ccc(F)cc3C(CC(=O)CO)N2c2ccc(O)cc2)cc1 (stereo not given) 1.9

State, in one line, measured selectivity ratio of O=[N+]([O-])CC1c2ccccc2C=C(c2ccccc2)N1c1ccccc1 (stereo not given) 0.6

Give reported selectivity ratio value for COc1ccc(C2=Cc3ccc(F)cc3C(CC(=O)CO)N2c2ccc(C#N)cc2)cc1 (stereo not given) 1.3

Give the measured selectivity ratio for O=[N+]([O-])CC1c2cc([N+](=O)[O-])ccc2C=C(c2ccccc2)N1c1ccc(Cl)cc1 (stereo not given) 22.6

----------
Exercise: state measured IC50 for each of the compounds provided.
- studySystem: Human immunodeficiency virus type 1 integrase (Human immunodeficiency virus 1)
- Sequence (Q7ZJM1 whole entry): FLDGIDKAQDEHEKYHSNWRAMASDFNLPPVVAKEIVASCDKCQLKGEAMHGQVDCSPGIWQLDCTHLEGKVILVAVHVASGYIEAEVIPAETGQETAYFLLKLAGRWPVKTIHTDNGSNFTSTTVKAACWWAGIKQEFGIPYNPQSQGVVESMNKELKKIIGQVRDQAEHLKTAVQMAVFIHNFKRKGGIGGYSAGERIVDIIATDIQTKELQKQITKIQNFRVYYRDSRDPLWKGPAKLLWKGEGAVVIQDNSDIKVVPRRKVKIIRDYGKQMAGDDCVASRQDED
Answer in µM, number only, no unit symbol.

For the compound COc1ccc(C2=Cc3ccc(F)cc3C(CC(=O)C(C)O)N2c2ccc(C)cc2)cc1 (centres undefined) , give its measured IC50 value. 10.6

Indicate the recorded IC50 value for this compound: COc1ccc(C2=Cc3ccc(F)cc3C(CC(=O)CO)N2c2ccc(C#N)cc2)cc1 (centres undefined) 7.6

State, in one line, measured IC50 of COc1ccc(C2=Cc3ccc([N+](=O)[O-])cc3C(CC(C)=O)N2c2ccc(F)cc2)cc1 (centres undefined) 0.46

Identify IC50 associated with the compound COc1ccc(C2=Cc3ccc(F)cc3C(CC(=O)CO)N2c2ccc(O)cc2)cc1 (centres undefined) 22.1

Give IC50 for COc1ccc(C2=Cc3ccc(F)cc3C(CC(=O)CO)N2c2ccc(Cl)cc2)cc1 (centres undefined) 17.9

In one line, give reported IC50 of the entry COc1ccc(C2=Cc3ccc(F)cc3C(CC(=O)C(C)O)N2c2ccc([N+](=O)[O-])cc2)cc1 (centres undefined) . 5.2

Hello, please tell me recorded IC50 for this one: COc1ccc(C2=Cc3ccc(F)cc3C(CC(=O)C(C)O)N2c2ccc(O)cc2)cc1 (centres undefined) 25.2

In one line, give reported IC50 of the entry COc1ccc(C2=Cc3ccc([N+](=O)[O-])cc3C(CC(C)=O)N2c2ccc(C)cc2)cc1 (centres undefined) . 0.6

Fill in IC50 for record COc1ccc(C2=Cc3ccc([N+](=O)[O-])cc3C(CC(C)=O)N2c2ccc(O)cc2)cc1 (centres undefined) 6.6
